# Tested on: KRAS-mutant PDC multicell tumor spheroid viability
# test.protocol: Anticancer human tumor 521955-158-R2-J5-PDC patient-derived pancreatic carcinoma cell line growth inhibition [KRAS2]
# measurement.context: second compound 1 µM; first compound 0.316 µM; stronger effect = lower value
readout.label: viability, T/C (%)
Provide the reading as a plain figure in %.

Some solved entries appear below for comparison.
molecule	endpoint.result
COC(=O)c1ccc2c(C(=Nc3ccc(N(C)C(=O)CN4CCN(C)CC4)cc3)c3ccccc3)c(O)[nH]c2c1 + CC1OCC2(CCN(c3cnc(Sc4ccnc(N)c4Cl)c(N)n3)CC2)C1N	55.9
CC(C)NCC(C(=O)N1CCN(c2ncnc3c2C(C)CC3O)CC1)c1ccc(Cl)cc1 (stereo not given) + CNCc1ccccc1-c1csc(C(C)Nc2nc(C)nc3cc(OC)c(OC)cc23)c1	75.4
COC(=O)c1ccc2c(C(=Nc3ccc(N(C)C(=O)CN4CCN(C)CC4)cc3)c3ccccc3)c(O)[nH]c2c1 + CNCc1ccccc1-c1csc(C(C)Nc2nc(C)nc3cc(OC)c(OC)cc23)c1	115
CCNC(=O)CC1N=C(c2ccc(Cl)cc2)c2cc(OC)ccc2-n2c(C)nnc21 (stereo not given) + CC1OCC2(CCN(c3cnc(Sc4ccnc(N)c4Cl)c(N)n3)CC2)C1N	40.4

Ask | Output measured viability, T/C for this item: COC(=O)c1ccc2c(C(=Nc3ccc(N(C)C(=O)CN4CCN(C)CC4)cc3)c3ccccc3)c(O)[nH]c2c1 + C=CC(=O)N1CCN(c2nc(OCC3CCCN3C)nc3c2CCN(c2cccc4cccc(C)c24)C3)CC1CC#N
Reply | 37.3

###

# Test system: KRAS-mutant PDC multicell tumor spheroid viability
# test.protocol: Anticancer human tumor 521955-158-R2-J5-PDC cell line growth inhibition [KRAS2];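 note: viability read after seven days of drug exposure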
# measurement.context: second compound 0.1 µM; first compound 3.16 µM; stronger effect = lower value
With a cut-off of 90%, any viability, T/C strictly below it is called true; any viability, T/C meeting it or above is called false.

compound	group
COc1cc(Nc2ncc3c(n2)-c2ccc(Cl)cc2C(c2c(F)cccc2OC)=NC3)ccc1C(=O)O + C=CC(=O)N1CCN(c2nc(=O)n(-c3c(C)ccnc3C(C)C)c3nc(-c4c(O)cccc4F)c(F)cc23)C(C)C1	true
CC1OCC2(CCN(c3cnc(Sc4ccnc(N)c4Cl)c(N)n3)CC2)C1N (stereo not given) + C=CC(=O)N1CCN(c2nc(=O)n(-c3c(C)ccnc3C(C)C)c3nc(-c4c(O)cccc4F)c(F)cc23)C(C)C1	false
COc1cc2nccc(Oc3ccc(NC(=O)C4(C(=O)Nc5ccc(F)cc5)CC4)cc3)c2cc1OC + C=CC(=O)N1CCN(c2nc(OCC3CCCN3C)nc3c2CCN(c2cccc4cccc(C)c24)C3)CC1CC#N	false
Cn1nccc1Nc1nccc(-c2cc3c(s2)C(C)(C)N(CCN2CCOCC2)C3=O)n1 + CC1OCC2(CCN(c3cnc(Sc4ccnc(N)c4Cl)c(N)n3)CC2)C1N	true

We now examine a further compound.
Ask | Is the reported viability, T/C for COc1cc2nccc(Oc3ccc(NC(=O)C4(C(=O)Nc5ccc(F)cc5)CC4)cc3)c2cc1OC + C=CC(=O)N1CCN(c2nc(=O)n(-c3c(C)ccnc3C(C)C)c3nc(-c4c(O)cccc4F)c(F)cc23)C(C)C1 strictly below 90%?
Reply | true

###

# Test system: KRAS-mutant PDC multicell tumor spheroid viability
# test.protocol: Anticancer human tumor 521955-158-R2-J5-PDC cell line growth inhibition [KRAS2]; active means viability on the fitted dose curve at most 10% of control; inactive means the rest;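 note: viability read after seven days of drug exposure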
# measurement.context: second compound 3.16 µM; first compound 0.1 µM
Could you please pick one outcome from this set? True for active, False for inactive

molecule	group
CC1(C)CCC(CN2CCN(c3ccc(C(=O)NS(=O)(=O)c4ccc(NCC5CCOCC5)c([N+](=O)[O-])c4)c(Oc4cnc5[nH]ccc5c4)c3)CC2)=C(c2ccc(Cl)cc2)C1 + COc1cc2nc(C)nc(NC(C)c3cc(N)cc(C(F)(F)F)c3)c2cc1OC1CCOC1	False
CC1COCCN1c1cc(-c2ccnn2C)c2ccnc(-c3ccn[nH]3)c2n1 (stereo not drawn) + C=CC(=O)N1CCN(c2nc(OCC3CCCN3C)nc3c2CCN(c2cccc4cccc(C)c24)C3)CC1CC#N	True

Now examine the next entry.
Ask | What was the test verdict on CN(C)C/C=C/C(=O)Nc1cc2c(Nc3ccc(F)c(Cl)c3)ncnc2cc1O[C@H]1CCOC1 + CC1OCC2(CCN(c3cnc(Sc4ccnc(N)c4Cl)c(N)n3)CC2)C1N ?
Reply | False

Attribution: PubChem BioAssay AID1963871
